# Species on record: Rattus norvegicus
# PROCEDURE SUMMARY: Open TG-GATES - Regimen: Daily Repeat
# Type: toxicity, organism-based, Sprague-Dawley
# Parameters: regimen Daily Repeat, gender Male, age 6 weeks
# CONDITION NOTES: in vivo, po, 0 mg/kg, […], tissue Plasma, route gavage, dose level Control, time 28 day

>  <MOLECULE>
CC(C)(S)[C@@H](N)C(=O)O

>  <UOM>
mg/dL

>  <TC>
67.6

$$$$
>  <MOLECULE>
CCC(C)(C)C(=O)O[C@H]1C[C@@H](C)C=C2C=C[C@H](C)[C@H](CC[C@@H]3C[C@@H](O)CC(=O)O3)[C@H]21

>  <UOM>
mg/dL

>  <TC>
66

$$$$
>  <MOLECULE>
C[C@](N)(Cc1ccc(O)c(O)c1)C(=O)O

>  <UOM>
mg/dL

>  <TC>
89

$$$$
>  <MOLECULE>
C[C@]12CCC(=O)C=C1CC[C@@H]1[C@@H]2CC[C@@]2(C)[C@H]1CC[C@]2(C)O

>  <UOM>
mg/dL

>  <TC>
63.4

$$$$
>  <MOLECULE>
CC(C)C(=O)Nc1ccc([N+](=O)[O-])c(C(F)(F)F)c1 [FLUTAMIDE]

>  <UOM>
mg/dL

>  <TC>
70.4

$$$$

* * *

List of RBC values.
# Species on record: Rattus norvegicus
# PROCEDURE SUMMARY: Open TG-GATES - Regimen: Single
# Format: toxicity, organism-based, Sprague-Dawley
# Set-up: regimen Single, gender Male, age 6 weeks
# CONDITION NOTES: in vivo, po, 0 mg/kg, 6 h, tissue Blood, route gavage, dose level Control
MEASURED PROPERTY: RBC (x10_4/ul)

>  <MOLECULE>
CCN1CCCC1CNC(=O)c1cc(S(N)(=O)=O)ccc1OC (stereo not given) [SULPIRIDE]

>  <REPORTED VALUE>
649.6

$$$$
>  <MOLECULE>
CC(=N)S [THIOACETAMIDE]

>  <REPORTED VALUE>
610.4

$$$$
>  <MOLECULE>
CCC(C)(C)C(=O)O[C@H]1C[C@@H](C)C=C2C=C[C@H](C)[C@H](CC[C@@H]3C[C@@H](O)CC(=O)O3)[C@H]21

>  <REPORTED VALUE>
597.2

$$$$
>  <MOLECULE>
CC(C)C(=O)Nc1ccc([N+](=O)[O-])c(C(F)(F)F)c1 [FLUTAMIDE]

>  <REPORTED VALUE>
625.8

$$$$
>  <MOLECULE>
CC(=O)Oc1cc(C(C)C)c(OCCN(C)C)cc1C

>  <REPORTED VALUE>
638.2

$$$$

* * *

# Species: Rattus norvegicus
# PROCEDURE SUMMARY: Open TG-GATES - Regimen: Daily Repeat
# Format: toxicity, organism-based, Sprague-Dawley
# Parameters: regimen Daily Repeat, gender Male, age 6 weeks
# CONDITION NOTES: in vivo, po, 100 mg/kg, 72 h, tissue Plasma, route gavage, dose level Low, time 3 day

>  <MOLECULE>
CCN1CCCC1CNC(=O)c1cc(S(N)(=O)=O)ccc1OC (centres undefined) [SULPIRIDE]

>  <GLC [mg/dL]>
186.8

$$$$
>  <MOLECULE>
CC(C)(S)[C@@H](N)C(=O)O [PENICILLAMINE]

>  <GLC [mg/dL]>
183.8

$$$$
>  <MOLECULE>
O=C(O)c1cccnc1 [NIACIN]

>  <GLC [mg/dL]>
199.8

$$$$
>  <MOLECULE>
O=C(N[C@H](CO)[C@H](O)c1ccc([N+](=O)[O-])cc1)C(Cl)Cl [CHLORAMPHENICOL]

>  <GLC [mg/dL]>
178.4

$$$$
